// provenance: patent US20080138437A1

Test: in vivo
Details: BDF1, mouse, sc
Counter-ions that a name gives are not always drawn.
For each entry below, report its LD50 value.
Answers are plain numbers, in mg/kg.

- COMPOUND: "Cc1ncc(CNC(=O)N(CCCl)N=O)c(N)n1 [Nimustine hydrochloride]"
  UOM: "mg/kg"
  LD50: 50

Here's the next entry for you.
Returns the measured LD50 for the input compound. Input: `COc1cccc2c1C(=O)c1c(O)c3c(c(O)c1C2=O)C[C@@](O)(C(=O)CO)C[C@@H]3O[C@H]1C[C@H](N)[C@H](O)[C@H](C)O1` 10

* * *

Assay: in vivo
Conditions: male, C57BL/6, mouse, po
Counter-ions that a name gives are not always drawn.
PROPERTY: log10 of LD50 (log10 of the value in mg/kg)
Values below are the log10 of the recorded LD50, with mg/kg as the unit.

Known results for molecules:
- MOLECULE: "CN(C)CCOc1ccc(/C(=C(/CCCl)c2ccccc2)c2ccccc2)cc1 [Toremifene citrate]"
  log10 of LD50: 2.56
- MOLECULE: "Sc1ncnc2nc[nH]c12"
  log10 of LD50: 3.04
- MOLECULE: "C[C@]12CC[C@@H]3c4ccc(OC(=O)N(CCCl)CCCl)cc4CC[C@H]3[C@@H]1CC[C@@H]2OP(=O)(O)O [Estramustine sodium phosphate]"
  log10 of LD50: 2.58

List reported log10 of LD50 for each of these molecules:
1. CC[C@]1(O)C[C@@H]2CN(CCc3c([nH]c4ccccc34)[C@@](C(=O)OC)(c3cc4c(cc3OC)N(C)[C@H]3[C@@](O)(C(=O)OC)[C@H](OC(C)=O)[C@]5(CC)C=CCN6CC[C@]43[C@@H]65)C2)C1 [Vinblastine sulfate]
2. O=P1(NCCCl)OCCCN1CCCl (stereo not shown) [Ifosfamide]
3. CC1=C(/C=C/C(C)=C/C=C/C(C)=C/C(=O)O)C(C)(C)CCC1
4. NC(=O)NO [Hydroxycarbamide]
5. C[C@H]1O[C@@H](n2cc(F)c(=O)[nH]c2=O)[C@H](O)[C@@H]1O
6. CC(C)C(=O)Nc1ccc([N+](=O)[O-])c(C(F)(F)F)c1 [Flutamide]
7. COc1cc([C@@H]2c3cc4c(cc3[C@@H](O[C@@H]3O[C@@H]5CO[C@@H](C)O[C@H]5[C@H](O)[C@H]3O)[C@H]3COC(=O)[C@H]23)OCO4)cc(OC)c1O [Etoposide]

[2.63, 3.00, 2.74, 3.37, 3.08, 2.89, 2.34]

* * *

For each entry below, report its LD50 value.
Assay: in vivo
Settings: male, C57BL/6, mouse
Structures can show the parent of a compound that is named as a salt.
Answer shape: numeric part, then the unit.

Known results for compounds:
- COMPOUND: "COC(COC(N)=O)C1=C(N2CC2)C(=O)C(C)=C(N2CC2)C1=O (stereo not drawn)"
  READOUT_VALUE: "5.8 mg/kg"
- COMPOUND: "CC(=O)O[C@H]1C(=O)[C@@]2(C)[C@H]([C@H](OC(=O)c3ccccc3)[C@]3(O)C[C@H](OC(=O)[C@H](O)[C@@H](NC(=O)c4ccccc4)c4ccccc4)C(C)=C1C3(C)C)[C@]1(OC(C)=O)CO[C@@H]1C[C@@H]2O"
  READOUT_VALUE: "12 mg/kg"
- COMPOUND: "N[C@@H](Cc1ccc(N(CCCl)CCCl)cc1)C(=O)O"
  READOUT_VALUE: "21 mg/kg"

List reported LD50 for each of these compounds:
1. CC[C@]1(O)C[C@@H]2CN(CCc3c([nH]c4ccccc34)[C@@](C(=O)OC)(c3cc4c(cc3OC)N(C)[C@H]3[C@@](O)(C(=O)OC)[C@H](OC(C)=O)[C@]5(CC)C=CCN6CC[C@]43[C@@H]65)C2)C1 [Vinblastine sulfate]
2. CCC1=C[C@@H]2CN(C1)Cc1c([nH]c3ccccc13)[C@@](C(=O)OC)(c1cc3c(cc1OC)N(C)[C@H]1[C@@](O)(C(=O)OC)[C@H](OC(C)=O)[C@]4(CC)C=CCN5CC[C@]31[C@@H]54)C2 [Vinorelbine tartrate]
3. S=P(N1CC1)(N1CC1)N1CC1

1: 5.6 mg/kg; 2: 2.3 mg/kg; 3: 16.1 mg/kg
